Molecular target: ATP-binding cassette sub-family B member 6 (Homo sapiens) (UniProt Q9NP58)
Sequence (Q9NP58 whole entry, looked up): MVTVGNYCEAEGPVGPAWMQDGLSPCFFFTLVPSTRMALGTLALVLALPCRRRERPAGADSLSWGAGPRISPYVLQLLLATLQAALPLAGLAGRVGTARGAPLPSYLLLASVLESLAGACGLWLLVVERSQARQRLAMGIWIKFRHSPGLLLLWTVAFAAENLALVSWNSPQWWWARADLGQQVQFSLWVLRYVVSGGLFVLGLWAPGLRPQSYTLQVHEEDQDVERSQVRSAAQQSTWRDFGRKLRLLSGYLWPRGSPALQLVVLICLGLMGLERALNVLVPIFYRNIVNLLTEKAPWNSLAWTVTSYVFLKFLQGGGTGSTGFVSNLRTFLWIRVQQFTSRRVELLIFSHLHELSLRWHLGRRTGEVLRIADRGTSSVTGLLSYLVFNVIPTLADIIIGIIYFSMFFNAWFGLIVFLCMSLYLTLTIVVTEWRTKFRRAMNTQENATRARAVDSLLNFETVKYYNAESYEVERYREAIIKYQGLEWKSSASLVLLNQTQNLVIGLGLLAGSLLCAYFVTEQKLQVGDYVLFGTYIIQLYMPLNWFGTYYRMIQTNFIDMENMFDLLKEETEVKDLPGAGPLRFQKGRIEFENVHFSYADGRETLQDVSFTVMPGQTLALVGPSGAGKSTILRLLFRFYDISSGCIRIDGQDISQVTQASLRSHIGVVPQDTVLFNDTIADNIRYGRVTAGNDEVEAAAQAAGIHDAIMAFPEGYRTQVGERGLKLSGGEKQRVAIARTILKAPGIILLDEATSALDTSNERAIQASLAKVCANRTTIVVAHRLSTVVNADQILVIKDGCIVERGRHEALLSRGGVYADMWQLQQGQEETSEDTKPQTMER
Experiment: blockers of ABCB6-driven porphyrin uptake – K562-ABCB6 cells, flow cytometry, validation set, pilot screen (AID 588550);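 further: 0% = DMSO wells and 100% = benzethonium chloride 70 µM positive control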
Details: K562-ABCB6 porphyrin accumulation, 1 h, at 10 µM, stronger effect = higher value
measurement_type: inhibition (%)
Form entry: value (%) — number only.

Worked cases, answers included:
- Clc1ccc(CCNc2ncnc3nc[nH]c23)cc1: 10
- O=C(CN1C(=O)/C(=C/c2cccc(Br)c2)SC1=S)Nc1cccnc1: -10
- CC[C@]1(O)CC2CN(CCc3c([nH]c4ccccc34)[C@@](C(=O)OC)(c3cc4c(cc3OC)N(C=O)[C@H]3[C@@](O)(C(=O)OC)[C@H](OC(C)=O)[C@]5(CC)C=CCN6CC[C@]43[C@@H]65)C2)C1 (some centres undefined): 112
- COc1ccc(NS(=O)(=O)c2ccc(N)cc2)nn1: 2
- CC(=O)N1CCN2C(=O)C1CCCC(=O)c1cc(C(C)C)ccc12 (centres undefined): 9

Noted for `COc1ccc(C(=O)Nc2cccc3cccnc23)cc1OC` : its inhibition reads 0

Noted for CC(NC(=O)c1ccc(N2CCNCC2)c([N+](=O)[O-])c1)C12CC3CC(CC(C3)C1)C2 (centres undefined) : its inhibition reads 7

----------
Biological target: ATP-binding cassette sub-family B member 6 (Homo sapiens) (UniProt Q9NP58)
Test: blockers of ABCB6-driven porphyrin uptake – K562-ABCB6 cells, flow cytometry, validation set, pilot screen (AID 588550);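 further: 0% = DMSO wells and 100% = benzethonium chloride 70 µM positive control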
Settings: K562-ABCB6 porphyrin accumulation, 1 h, at 10 µM, stronger effect = higher value
measurement_type: inhibition (%)
Form entry: value (%) — number only.

• Cc1cc(Cl)cc2c1NC(=O)[C@]21[C@@H]2C(=O)N(Cc3ccccc3)C(=O)[C@@H]2[C@@H]2CCCN21 = -22
• CC1(C)Cc2ccccc2-c2nc(-c3ccccc3)oc(=O)c21 = 7

Noted for Nc1nc(SCc2ccc([N+](=O)[O-])cc2)c2ncn(C3OC(CO)C(O)C3O)c2n1 (stereo unspecified) : its inhibition reads 2

Noted for COc1ccc2nc(S(=O)Cc3ncc(C)c(OC)c3C)[nH]c2c1 (stereo unspecified) : its inhibition reads -7

Noted for `NC(=O)c1cnccn1` : its inhibition reads 2

----------
Assay: yeast AGP1-GFP level changes, GLN3 branch – cell-based, multiplex flow cytometry, S. cerevisiae, primary screen (AID 1887);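 further: AGP1-GFP fusion strain of S. cerevisiae within a five-strain barcoded multiplex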
Conditions: 3 h, at 10 µM, stronger effect = higher value
Inconclusive results are not listed.
# GFP response, % of DMSO per entry
Form entry: value (%) — number only.

- CSCCC(NC(=O)OC(C)(C)C)C(=O)Oc1ccc2c(=O)c(-c3ccc4c(c3)OCCO4)coc2c1 (stereo not given): 102
- CN(CCO)CC(O)Cn1cnc2c1c(=O)n(C)c(=O)n2C (stereo not given) (tested in a mixture with another compound): 112
- COc1ccc2cc([C@H](C)C(=O)O)ccc2c1: 91.7
- COCCCNc1nc2c([nH]1)c(=O)[nH]c(=O)n2C: 114
- COc1ccc2c(CC(=O)NCC3CCC(C(=O)O)CC3)cc(=O)oc2c1 (stereo not given): 107

Continue with the next molecule.
Noted for CC1(C)C(=O)OC(c2cccs2)C2(CCCCC2)C1=O (stereo not given) : its GFP response, % of DMSO reads 97.5

----------
Tested on: anti-desmoglein-3 scFv antibody binding to human DSG3
Assay: blockers of pathogenic pemphigus antibody–desmoglein-3 binding – biochemical, validation compound set, bead-based, flow cytometry, pilot screen (AID 588368);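 further: signal is the median channel fluorescence of bead-bound GFP antibody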
Conditions: Protein G beads, DSG3-Fc, scFv-GFP binding, at 10 µM, stronger effect = lower value
# binding (% of control) per entry
Form entry: value (%) — number only.

- CC(=O)N1CCN(c2ccc(OC[C@H]3CO[C@](Cn4ccnc4)(c4ccc(Cl)cc4Cl)O3)cc2)CC1: 98.1

Continue with the next molecule.
Noted for `COc1cccc2cc(-c3ccccc3)c(=O)oc12` : its binding (% of control) reads 102

----------
Target: GTPase HRas (Homo sapiens) (UniProt P01112)
Sequence (P01112 whole entry, looked up): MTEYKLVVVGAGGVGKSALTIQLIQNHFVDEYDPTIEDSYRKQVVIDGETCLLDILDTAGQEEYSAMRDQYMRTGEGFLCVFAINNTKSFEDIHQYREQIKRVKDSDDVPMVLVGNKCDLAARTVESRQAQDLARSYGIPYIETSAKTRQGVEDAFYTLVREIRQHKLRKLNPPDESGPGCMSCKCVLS
Assay: Ras wt fluorescent GTP loading blockade – biochemical, wildtype, multiplex bead flow cytometry, dose response (AID 1335)
Conditions: bead-based flow cytometry, Bodipy-GTP binding to GST-Ras; at 100 µM (top of the series) unless noted
Rule: GTP binding, percent of control below 90% gives label 1. Equal to or above 90% gives label 0.

- Cc1nc2cccc(C)n2c(=O)c1Cl: label 1
- CC(C)(C)C(=O)c1sc2nc(-c3cccs3)cc(C(F)(F)F)c2c1N: label 0
- CC(C)c1cc(NCc2ccccn2)n2c(nc3ccccc32)c1C#N: label 1

For this compound, is GTP binding, percent of control lower than 90%? `Cc1sc2nc3ccc(NCc4ccco4)nn3c(=O)c2c1C` label 1

For this compound, is GTP binding, percent of control lower than 90%? `O=C(O)c1ccc(CSCc2ccccc2Cl)o1` label 1

For this compound, is GTP binding, percent of control lower than 90%? `COc1cc(N2CCCC2)c(OC)cc1/C=C(/C#N)c1cccc(F)c1` label 0

For this compound, is GTP binding, percent of control lower than 90%? `COc1ccc(-c2noc(CCC(=O)N3CCN(c4cc(C)ccc4C)CC3)n2)cc1` label 1

For this compound, is GTP binding, percent of control lower than 90%? `COc1cc2[nH]c(=S)nc(NC3CCCCCC3)c2cc1OC` label 1

For this compound, is GTP binding, percent of control lower than 90%? `COc1ccccc1NS(=O)(=O)c1cc([N+](=O)[O-])ccc1N/N=C/c1sc(N2CCOCC2)nc1-c1ccccc1` label 1

For this compound, is GTP binding, percent of control lower than 90%? Cc1ccc(C2=NN(S(=O)(=O)c3ccccc3)C(c3ccccc3O)C2)cc1 (stereo unspecified) label 0

----------
Biological target: Cell division control protein 42 homolog (Homo sapiens)
Test: inhibition of fluorescent GTP binding to wildtype Cdc42 – biochemical, multiplex bead flow cytometry, Bodipy-FL-GTP, dose response (AID 1334)
Details: bead-based flow cytometry, Bodipy-FL-GTP binding to GST-Cdc42; at 100 µM (top of the series) unless noted
Entries with a potency or affinity are not part of this list.
measurement_type: fluorescence, percent of control (lower = inhibition) (%)
Form entry: value (%) — number only.

• O=c1[nH]c(=O)c2nnc(N/N=C\c3ccc(O)cc3)nc2[nH]1 = 32.2
• O=C(CSc1ccc2nnc(-c3ccncc3)n2n1)Nc1nccs1 = 30.7
• COc1cccc(/C=N/Nc2nn3cnnc3c3ccccc23)c1 = 36.5
• CCCCNc1nc(=S)[nH]c2cc(OC)c(OC)cc12 = 37.9

Noted for `CSc1ccc(/C=N/NC(=O)c2cc(O)cc(O)c2)cc1` : its fluorescence, percent of control (lower = inhibition) reads 33.1

Noted for `CC(C)OCCCn1c(=NC(=O)c2ccncc2)c(C#N)cc2c(=O)n3ccccc3nc21` : its fluorescence, percent of control (lower = inhibition) reads 88.2

Noted for `O=C(c1nn2c(C(F)(F)F)cc(-c3ccc(F)cc3)nc2c1Cl)N1CCOCC1` : its fluorescence, percent of control (lower = inhibition) reads 48.9

Noted for `O=C(O)c1ccccc1NCc1ccc(Cl)cc1` : its fluorescence, percent of control (lower = inhibition) reads 79.2

Noted for `COc1cc(/C=N/NC(N)=O)cc([N+](=O)[O-])c1O` : its fluorescence, percent of control (lower = inhibition) reads 35.1

Noted for `Cc1cc(-c2n[nH]c(=S)n2/N=C/c2cccc([N+](=O)[O-])c2)n[nH]1` : its fluorescence, percent of control (lower = inhibition) reads 35

----------
Experiment: rapamycin-like changes in RPL19A-GFP expression – cell-based, S. cerevisiae, multiplex flow cytometry, primary screen (AID 1862);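 further: lower values mimic rapamycin by blocking the RPL19A rise seen in DMSO cells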
Details: S. cerevisiae RPL19A-GFP strain, flow cytometry fluorescence, 3 h; at 10 µM; stronger effect = lower value
Inconclusive results are not listed.
measurement_type: percent of DMSO control GFP (%)
Form entry: value (%) — number only.

• O=C1CCCC(=O)C1=Cc1c[nH]c2ccccc12 = 97.9
• O=C(O)c1ccc(C(=O)C(=O)c2ccccc2)cc1 = 104
• C/C=C/c1ccc(OCCCCN2CC(C)CC(C)C2)c(OC)c1 (configuration not stated) = 102
• CCc1c(C(C)=O)oc2ccc3c(C)cc(=O)oc3c12 = 94.6
• CC(C)N1C(=O)/C(=C\c2nc3ccccc3c(=O)[nH]2)c2ccccc21 = 103
• COc1ccc2[nH]c(CN3CCN(CC(C)C)C(CCO)C3)c(C)c2c1 (configuration not stated) = 98.8
• CC(C)C(=O)Nc1ccc2c3c(cccc13)CC2 = 95
• c1cnc(N2CCN(Cc3ccc4c(c3)OCO4)CC2)nc1 = 101
• Nc1cnn(C2OC(CO)C(O)C2O)c(=O)n1 (configuration not stated) = 102
• O=C(O)/C=C/c1cnc[nH]1 = 104

Noted for O=C(c1cccnc1)N1N=C(C2CC2)CC1(O)C(F)(F)F (configuration not stated) : its percent of DMSO control GFP reads 99.1

Noted for `O=C(CCC(=O)c1cccs1)c1cccs1` : its percent of DMSO control GFP reads 99.5

src = PubChem BioAssay
